target.of.assay: recombinant soluble homotrimeric HA of A/Wisconsin/67/05 (H3N2) (Influenza A virus A/Wisconsin/67/2005(H3N2))
protocol.details: HA microarray, BCC supernatant
particulars: remark: other sources report otherwise
reported.metric: Trimeric HA Binding: RLU

- binder: "TCN-539 (5056_A08) (antibody, V domains shown) VH: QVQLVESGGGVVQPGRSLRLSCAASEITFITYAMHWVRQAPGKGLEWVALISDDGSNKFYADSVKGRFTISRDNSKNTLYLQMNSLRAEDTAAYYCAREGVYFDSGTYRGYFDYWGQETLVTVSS VL: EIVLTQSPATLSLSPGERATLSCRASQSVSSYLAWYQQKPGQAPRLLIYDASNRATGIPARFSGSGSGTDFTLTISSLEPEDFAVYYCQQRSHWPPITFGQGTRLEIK"
  reported.metric: "Trimeric HA Binding: RLU"
  meas.value: "715 RLU"
- binder: "TCN-529 (5297_H01) (antibody, V domains shown) VH: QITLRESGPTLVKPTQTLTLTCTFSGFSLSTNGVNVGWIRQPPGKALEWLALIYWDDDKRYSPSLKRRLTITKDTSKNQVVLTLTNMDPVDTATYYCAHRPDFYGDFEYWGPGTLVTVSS VL: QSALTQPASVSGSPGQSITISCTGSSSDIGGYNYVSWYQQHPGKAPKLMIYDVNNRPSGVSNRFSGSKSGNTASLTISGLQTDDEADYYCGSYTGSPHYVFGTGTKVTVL"
  reported.metric: "Trimeric HA Binding: RLU"
  meas.value: "51600 RLU"
- binder: "TCN-527 (5086_C06) (antibody, V domains shown) VH: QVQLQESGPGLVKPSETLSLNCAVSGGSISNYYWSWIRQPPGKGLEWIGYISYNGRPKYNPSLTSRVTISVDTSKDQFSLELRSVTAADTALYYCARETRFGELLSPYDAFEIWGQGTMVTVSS VL: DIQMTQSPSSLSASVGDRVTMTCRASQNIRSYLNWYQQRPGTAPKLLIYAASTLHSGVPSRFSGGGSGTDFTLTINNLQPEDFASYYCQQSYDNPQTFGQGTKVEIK"
  reported.metric: "Trimeric HA Binding: RLU"
  meas.value: "5720 RLU"
